Where these numbers come from: ChEMBL document CHEMBL4190405

procedure details: Kinetic solubility of the compound
Assay type: physicochemical
assay conditions: read-out: Kinetic_solubility
measured attribute: solubility kinetic (µM)
Your answer is read as µM, so omit the unit and give the number.

// recorded solubility kinetic for COc1cc(C(N)=O)nc(-c2cccc(C#C[C@]3(O)CCN(C)C3=O)c2)c1 : 139

* * *

procedure details: Lipophilicity, log D of the compound at pH 7.4 by LC-MS based shake flask method
Format: physicochemical
assay conditions: buffer
measured attribute: logD
Please respond with just the number, no unit label.

// worked examples, logD included
In [3]: df
Out[3]:
                               entry_smiles  observed
0  CN1CC[C@@](O)(C#Cc2cccc(-c3nc(C(N)=O)c4ccccn34)c2)C1=O       1.3
1  CN1CC[C@@](O)(C#Cc2ccnc(-n3nc(C(N)=O)c4ccccc43)c2)C1=O       1.9
2  CN1CC[C@@](O)(C#Cc2cccc(-n3cc(C(N)=O)c4cccnc43)c2)C1=O       2.4
3  CN1CC[C@@](O)(C#Cc2ccnc(-n3nc(C(N)=O)cc3C3CC3)c2)C1=O         2

// recorded logD for CN1CC[C@@](O)(C#Cc2cccc(-n3nc(C(N)=O)c4cccnc43)c2)C1=O : 1.6

// recorded logD for CN1CC[C@@](O)(C#Cc2ccnc(-n3nc(C(N)=O)c4c3CCCC4)c2)C1=O : 1.9

// recorded logD for CN1CC[C@@](O)(C#Cc2cccc(-c3ccc(N)c(C(N)=O)n3)c2)C1=O : 1.7

// recorded logD for CN1CC[C@@](O)(C#Cc2cccc(-n3nc(C(N)=O)c4ccccc43)c2)C1=O : 2.1

// recorded logD for COc1ccc2c(-c3cccc(C#C[C@]4(O)CCN(C)C4=O)c3)nc(C(N)=O)n2c1 : 2.4

// recorded logD for CN1CC[C@@](O)(C#Cc2cccc(-c3nc(C(N)=O)n4ccccc34)c2)C1=O : 2.2

// recorded logD for CN1CC[C@@](O)(C#Cc2cccc(-c3cncc(C(N)=O)n3)c2)C1=O : 1

// recorded logD for CN1CC[C@@](O)(C#Cc2cccc(-c3cc4ccccc4c(C(N)=O)n3)c2)C1=O : 2.5
